# Protocol Description: Isothermal fluorescence titration (IFT), HS
# Format: binding
# Measurement Setup: isothermal fluorescence titration; TAMRA-labeled peptide; biphasic binding isotherm, fit of only the initial high-affinity phase
Experimental Endpoint: pKd
Would you please state pKd, meaning minus log10 of the concentration in mol/L, as a bare number?

Please look up its pKd: 74KKKQKNGKKHQKKKVLKVRK93 [CXCL9(74-93), COOH-terminal peptide of CXCL9 lacking the 10 COOH-terminal amino acids of CXCL9(74-103)]
9.00

* * *

# Protocol Description: Isothermal fluorescence titration (IFT), CS
# Format: binding
# Measurement Setup: isothermal fluorescence titration; TAMRA-labeled peptide; read-out: affinity (KD) for CS
# Method: To study the interaction between CXCL9(74-93) and GAGs, titration experiments were performed as described by Gerlza et al. ([46]) using TAMRA-labeled synthetic CXCL9(74-93), TAMRA-labeled synthetic CXCL9(74-103), HS (Iduron BN1, Manchester, UK), low molecular weight heparin (LMWH; Iduron BN5), and chondroitin sulfate (CS; Carbosynth, Compton, UK).
Recorded pKd by entry
Would you please state pKd, meaning minus log10 of the concentration in mol/L, as a bare number?

Substance	Recorded Result
74KKKQKNGKKHQKKKVLKVRKSQRSRQKKTT103 [CXCL9(74-103), COOH-terminal peptide of CXCL9]	7.17

# next substance below
Please look up its pKd: 74KKKQKNGKKHQKKKVLKVRK93 [CXCL9(74-93), COOH-terminal peptide of CXCL9 lacking the 10 COOH-terminal amino acids of CXCL9(74-103)]
6.53

* * *

# Protocol Description: Isothermal fluorescence titration (IFT), LMWH
# Assay type: binding
# Measurement Setup: isothermal fluorescence titration; TAMRA-labeled peptide; read-out: affinity (KD value) for LMWH
Experimental Endpoint: Kd (µM)
Enter your answer as a number in µM; do not include the unit.

Please look up its Kd: 74KKKQKNGKKHQKKKVLKVRK93 [CXCL9(74-93), COOH-terminal peptide of CXCL9 lacking the 10 COOH-terminal amino acids of CXCL9(74-103)]
0.063
